Target: D(1A) dopamine receptor (Sus scrofa, UniProt P50130)
Sequence (P50130 whole entry): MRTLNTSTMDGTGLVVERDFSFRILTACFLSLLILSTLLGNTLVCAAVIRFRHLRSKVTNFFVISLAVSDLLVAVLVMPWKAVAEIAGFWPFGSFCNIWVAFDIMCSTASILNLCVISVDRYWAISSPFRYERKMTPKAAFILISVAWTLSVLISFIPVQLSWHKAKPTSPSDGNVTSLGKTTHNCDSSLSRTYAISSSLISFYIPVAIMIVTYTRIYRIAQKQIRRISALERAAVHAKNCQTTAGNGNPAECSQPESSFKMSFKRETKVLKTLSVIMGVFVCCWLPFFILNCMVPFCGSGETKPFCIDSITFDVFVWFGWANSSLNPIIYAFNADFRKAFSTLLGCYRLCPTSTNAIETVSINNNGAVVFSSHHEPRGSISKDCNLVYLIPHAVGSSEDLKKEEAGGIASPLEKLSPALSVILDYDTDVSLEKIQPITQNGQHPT
Test: Displacement of [3H]SCH23390 from dopamine D1 receptor in pig striatal membranes
Labelling: Ki reported below 3000 nM becomes true; at or above becomes false.

Worked examples, 2 molecules total:
Cc1ccc(C)c(C(=O)CCCN2CCC(O)(c3ccc(Cl)cc3)CC2)c1 ... false
O=C(CCCN1CCN(c2ccc(Cl)cc2)CC1)c1cc2ccc1CCc1ccc(cc1)CC2 ... false

Task item: Record O=C(CCCN1CCN(c2ccc(Cl)cc2)CC1)c1ccc(F)cc1 : is its Ki strictly below 3000 nM?
Reply: true

Task item: Record Cc1ccc(C)c(C(=O)NCCCCN2CCN(c3cc(C)ccc3C)CC2)c1 : is its Ki strictly below 3000 nM?
Reply: false

Task item: Record O=C(NCCCCN1CCN(c2cc3ccc2CCc2ccc(cc2)CC3)CC1)c1cc2ccccc2s1 : is its Ki strictly below 3000 nM?
Reply: false

Task item: Record COc1ccccc1N1CCN(CCCCNC(=O)c2cc(C)ccc2C)CC1 : is its Ki strictly below 3000 nM?
Reply: true

Task item: Record O=C(CCCN1CCC(O)(c2cc3ccc2CCc2ccc(cc2)CC3)CC1)c1ccc(F)cc1 : is its Ki strictly below 3000 nM?
Reply: true

Task item: Record COc1ccccc1N1CCN(CCCCNC(=O)c2cc3ccc2CCc2ccc(cc2)CC3)CC1 : is its Ki strictly below 3000 nM?
Reply: true

Task item: Record Cc1ccc(C)c(N2CCN(CCCCNC(=O)c3cc4ccccc4s3)CC2)c1 : is its Ki strictly below 3000 nM?
Reply: true

Task item: Record Cc1ccc(C)c(C2(O)CCN(CCCC(=O)c3ccc(F)cc3)CC2)c1 : is its Ki strictly below 3000 nM?
Reply: true

Task item: Record O=C(CCCN1CCC(O)(c2ccc(Cl)cc2)CC1)c1cc2ccc1CCc1ccc(cc1)CC2 : is its Ki strictly below 3000 nM?
Reply: false

---

Property: Ki; scope: individual molecules
Biological target: D(4) dopamine receptor (Homo sapiens)
Sequence (P21917 whole entry): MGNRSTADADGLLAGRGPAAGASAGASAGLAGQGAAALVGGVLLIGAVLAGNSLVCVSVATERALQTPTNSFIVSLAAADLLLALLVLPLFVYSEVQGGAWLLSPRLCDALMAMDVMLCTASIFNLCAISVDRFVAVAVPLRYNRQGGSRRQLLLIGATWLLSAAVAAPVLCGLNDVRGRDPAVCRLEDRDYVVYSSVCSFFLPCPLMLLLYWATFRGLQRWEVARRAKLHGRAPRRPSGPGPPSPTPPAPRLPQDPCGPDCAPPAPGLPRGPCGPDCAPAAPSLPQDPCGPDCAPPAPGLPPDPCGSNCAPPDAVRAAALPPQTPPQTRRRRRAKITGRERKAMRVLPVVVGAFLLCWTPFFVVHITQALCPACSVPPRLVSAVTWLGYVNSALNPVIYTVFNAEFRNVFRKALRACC
// return numeric value only (unit: nM, not printed)

Cc1ccc(C)c(N2CCN(CCCCNC(=O)c3cc4ccccc4s3)CC2)c1 ... 300
Cc1ccc(C)c(N2CCN(CCCC(=O)c3ccc(F)cc3)CC2)c1 ... 17
O=C(CCCN1CCN(c2cc3ccc2CCc2ccc(cc2)CC3)CC1)c1ccc(F)cc1 ... 120
O=C(CCCN1CCC(O)(c2ccc(Cl)cc2)CC1)c1cc2ccc1CCc1ccc(cc1)CC2 ... 39

Task item: Query Ki for COc1ccccc1N1CCN(CCCCNC(=O)c2cc(C)ccc2C)CC1
Reply: 23

Task item: Query Ki for Cc1ccc(C)c(C(=O)CCCN2CCC(O)(c3cc(C)ccc3C)CC2)c1
Reply: 30

Task item: Query Ki for Cc1ccc(C)c(C2(O)CCN(CCCC(=O)c3ccc(F)cc3)CC2)c1
Reply: 20

Task item: Query Ki for O=C(NCCCCN1CCN(c2cc3ccc2CCc2ccc(cc2)CC3)CC1)c1cc2ccc1CCc1ccc(cc1)CC2
Reply: 170

Task item: Query Ki for O=C(CCCN1CCC(O)(c2cc3ccc2CCc2ccc(cc2)CC3)CC1)c1cc2ccc1CCc1ccc(cc1)CC2
Reply: 30

Task item: Query Ki for COc1ccccc1N1CCN(CCCCNC(=O)c2cc3ccc2CCc2ccc(cc2)CC3)CC1
Reply: 11

---

Biological target: D(2) dopamine receptor (Homo sapiens, UniProt P14416)
Sequence (P14416 whole entry): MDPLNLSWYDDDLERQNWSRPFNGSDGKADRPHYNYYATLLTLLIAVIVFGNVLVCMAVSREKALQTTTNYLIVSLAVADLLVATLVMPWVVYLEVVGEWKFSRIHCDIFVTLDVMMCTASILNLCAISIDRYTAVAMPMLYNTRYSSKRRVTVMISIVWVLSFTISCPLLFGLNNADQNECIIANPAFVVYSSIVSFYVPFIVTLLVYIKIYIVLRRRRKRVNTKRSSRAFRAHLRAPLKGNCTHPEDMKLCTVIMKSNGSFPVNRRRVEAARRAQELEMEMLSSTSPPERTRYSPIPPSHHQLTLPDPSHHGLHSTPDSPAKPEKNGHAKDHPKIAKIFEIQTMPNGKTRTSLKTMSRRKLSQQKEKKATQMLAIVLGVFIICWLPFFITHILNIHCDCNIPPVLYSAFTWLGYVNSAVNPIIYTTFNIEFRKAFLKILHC
Test: Displacement of [3H]Spiperone from human dopamine D2 long receptor expressed in CHO cells
Assay type: cell-based
Property: pKi; scope: individual molecules
API: returns pKi as number; meaning -log10 of concentration in mol/L.

Known results for molecules:
Cc1ccc(C)c(C(=O)CCCN2CCC(O)(c3ccc(Cl)cc3)CC2)c1 ... 7.82
Cc1ccc(C)c(N2CCN(CCCCNC(=O)c3cc4ccccc4s3)CC2)c1 ... 7.08

Let's switch to this molecule now.
Task item: Query pKi for O=C(CCCN1CCC(O)(c2cc3ccc2CCc2ccc(cc2)CC3)CC1)c1ccc(F)cc1
Reply: 8.32

---

Property: pKi; scope: individual molecules
Target: D(2) dopamine receptor (Homo sapiens)
Test: Displacement of [3H]Spiperone from human dopamine D2 short receptor expressed in CHO cells
Type: cell-based
API: returns pKi as number; meaning -log10 of concentration in mol/L.

Known results for molecules:
COc1ccccc1N1CCN(CCCCNC(=O)c2cc(C)ccc2C)CC1 ... 7.77
COc1ccccc1N1CCN(CCCCNC(=O)c2cc3ccc2CCc2ccc(cc2)CC3)CC1 ... 7.74
Cc1ccc(C)c(C(=O)CCCN2CCC(O)(c3ccc(Cl)cc3)CC2)c1 ... 7.37

Task item: Query pKi for O=C(CCCN1CCC(O)(c2cc3ccc2CCc2ccc(cc2)CC3)CC1)c1ccc(F)cc1
Reply: 8.44

Task item: Query pKi for Cc1ccc(C)c(C2(O)CCN(CCCC(=O)c3ccc(F)cc3)CC2)c1
Reply: 8.19

Task item: Query pKi for O=C(CCCN1CCN(c2ccc(Cl)cc2)CC1)c1ccc(F)cc1
Reply: 7.21

Task item: Query pKi for Cc1ccc(C)c(N2CCN(CCCCNC(=O)c3cc4ccccc4s3)CC2)c1
Reply: 7.19

Task item: Query pKi for O=C(CCCN1CCN(c2ccc(Cl)cc2)CC1)c1cc2ccc1CCc1ccc(cc1)CC2
Reply: 6.36

Task item: Query pKi for O=C(NCCCCN1CCN(c2cc3ccc2CCc2ccc(cc2)CC3)CC1)c1cc2ccc1CCc1ccc(cc1)CC2
Reply: 7.32

Task item: Query pKi for Cc1ccc(C)c(C(=O)NCCCCN2CCN(c3cc(C)ccc3C)CC2)c1
Reply: 7.07

---

Target chain: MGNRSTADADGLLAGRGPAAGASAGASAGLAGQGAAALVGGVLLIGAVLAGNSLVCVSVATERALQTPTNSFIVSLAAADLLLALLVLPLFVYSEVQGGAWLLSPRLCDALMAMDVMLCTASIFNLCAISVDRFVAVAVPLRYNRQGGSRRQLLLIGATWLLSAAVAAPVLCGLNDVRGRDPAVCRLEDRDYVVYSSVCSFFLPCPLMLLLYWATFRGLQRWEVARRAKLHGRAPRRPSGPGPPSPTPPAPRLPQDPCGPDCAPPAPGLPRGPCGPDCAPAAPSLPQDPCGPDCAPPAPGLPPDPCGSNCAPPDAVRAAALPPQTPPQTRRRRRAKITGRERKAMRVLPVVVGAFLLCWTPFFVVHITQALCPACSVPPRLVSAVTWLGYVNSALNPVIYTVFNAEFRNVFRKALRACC
Measurement name: log10(Ki) (log10 of the value in µM)
// stored as log10 of Ki expressed in µM

Known results for molecules:
O=C(CCCN1CCC(O)(c2cc3ccc2CCc2ccc(cc2)CC3)CC1)c1ccc(F)cc1 ... -3.14
Cc1ccc(C)c(C(=O)NCCCCN2CCN(c3cc(C)ccc3C)CC2)c1 ... -0.66

Task item: Query log10(Ki) for O=C(CCCN1CCN(c2ccc(Cl)cc2)CC1)c1cc2ccc1CCc1ccc(cc1)CC2
Reply: -0.92

Task item: Query log10(Ki) for Cc1ccc(C)c(C(=O)CCCN2CCC(O)(c3ccc(Cl)cc3)CC2)c1
Reply: -1.21

Task item: Query log10(Ki) for O=C(CCCN1CCN(c2ccc(Cl)cc2)CC1)c1ccc(F)cc1
Reply: -2.12

---

Target: D(2) dopamine receptor (Homo sapiens, UniProt P14416)
Assay: Displacement of [3H]Spiperone from human dopamine D2 long receptor expressed in CHO cells
Type: cell-based
Property: Ki; scope: individual compounds
// return numeric value only (unit: nM, not printed)

Known results for compounds:
COc1ccccc1N1CCN(CCCCNC(=O)c2cc(C)ccc2C)CC1 ... 22
Cc1ccc(C)c(C2(O)CCN(CCCC(=O)c3ccc(F)cc3)CC2)c1 ... 3.4

Task item: Write down the reported Ki (system: D(2) dopamine receptor (Homo sapiens, UniProt P14416)) of Cc1ccc(C)c(N2CCN(CCCC(=O)c3ccc(F)cc3)CC2)c1
Reply: 13
